assay: Cell viability analysis (1), normal hepatocytes, MTS kit; format: cell-based, mice; details: mouse, FL83B normal hepatocytes; DMB 20 ppm, 24 hours; read-out: Cell viability (%, relative to the blank group)
readout_label: viability at 24 h, 20 ppm (%)
Entry rule: numbers only, all in %.

Which viability at 24 h, 20 ppm reading was recorded for the molecule COc1cc(C)c(OC)c2c1OCO2 ? 111

---

experiment: Cell viability analysis (1), normal hepatocytes, MTS kit; type: cell-based, mice; details: mouse, FL83B normal hepatocytes; DMB 2.5 ppm, 24 hours; read-out: Cell viability (%, relative to the blank group)
readout_label: viability at 24 h, 2.5 ppm (%)
Just the number please, in %, no unit attached.

# input compound: COc1cc(C)c(OC)c2c1OCO2 ; wanted: its viability at 24 h, 2.5 ppm 114
